PROCEDURE_TEXT: amyloid nucleation score (Sup35N fusion, yeast selection) (log enrichment); library NNK2; higher = more nucleation; inactive = no reads after selection;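 note: zero at mode of non-aggregating sequences after 7 days selection at 30°C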
Rule: amyloid nucleation score of -0.2 or more gives T; anything lower gives F.

substance=YMRVLYIRRLWIHFL class_name=T
substance=VDNYEQLTMKNEHETNT class_name=F
substance=QYRFFVYKLRRQIIYV class_name=T
substance=LPVVLAGS class_name=T
substance=SVANERR class_name=T
substance=SRFCVRRLTVYRRSV class_name=T
substance=ITWNIVGGHFS class_name=F
substance=WLMGVRG class_name=F
substance=KLVLSNSALFRRTFAINPV class_name=T
substance=YMDNCSYRYSVTESTRNTAG class_name=T
substance=TGGRNVHNCNNNHASSWPRC class_name=F
substance=TNCTDEGIILCHP class_name=T
substance=THSNWTKNSVSSIYCIKILF class_name=T
substance=ERSCSDIAGYPRPHGVQRNA class_name=T
substance=SSRQTVGNTPASDLLRDYCW class_name=T
substance=RRNNTGKHFWDWETREGFSM class_name=F
substance=YWLNMWFYRSSASYRSMDMD class_name=F
substance=KLLAVVLFGDGLAFNN class_name=T
substance=VKYYQGIGVWSKVWIMFD class_name=T
substance=FPIFKHDWLFYWCTPSIKGR class_name=F
substance=EFCMEDQSMSLLWDYY class_name=T
substance=ARMRFKRRKCCNAIWVRSSV class_name=T
substance=QFILFCIPTPNQ class_name=T
substance=VHKYSSGMDYRSVVNLETLG class_name=T
substance=WFSLFLPPVSSKRQPADEMA class_name=F
substance=LQTAIVGSPRLVTFRIYIER class_name=T
substance=MPCLFVF class_name=T
substance=ARNSGWTATSSVYPLKTPAT class_name=T
substance=CDSRCRYLAEYRFI class_name=T
substance=NPFLFAYANYLLLMCIGRVY class_name=T
substance=VTFYGGAYSENYLVRCYALN class_name=T
substance=RAYCAYTLR class_name=T

* * *

PROCEDURE_TEXT: amyloid nucleation score (Sup35N fusion, yeast selection) (log enrichment); library NNK3; higher = more nucleation; inactive = no reads after selection
RECORDED_ENDPOINT: amyloid nucleation score

ordered_residues=ELFSVNKCDLALNTCLTVPG reported_value=2.6
ordered_residues=CQSVLCAKFLVSERH reported_value=inactive
ordered_residues=VDMSELVWIISPEVHTVSCS reported_value=inactive
ordered_residues=FDLVNWYFQRNIVLRQSCCY reported_value=inactive
ordered_residues=SGVMNWKT reported_value=inactive
ordered_residues=HLTIVDWSPRESSSWIMRFT reported_value=inactive
ordered_residues=TLSCSDFTVLGTCDAVEGIN reported_value=inactive
ordered_residues=PGDFISDEAMDSNVYFRLQS reported_value=-0.693
ordered_residues=CCRDVYTEGDM reported_value=inactive

* * *

PROCEDURE_TEXT: amyloid nucleation score (Sup35N fusion, yeast selection) (log enrichment); library NNK3; higher = more nucleation; inactive = no reads after selection
RECORDED_ENDPOINT: amyloid nucleation score

substance=FSGRMVFNPPIISCSYSWSW recorded_endpoint="amyloid nucleation score" reported_value=inactive
substance=LFYGNW recorded_endpoint="amyloid nucleation score" reported_value=inactive
substance=RYNLSFFLYFSQANNHQNLF recorded_endpoint="amyloid nucleation score" reported_value=inactive
substance=HVLLDPEIITA recorded_endpoint="amyloid nucleation score" reported_value=inactive
substance=PWFNFECL recorded_endpoint="amyloid nucleation score" reported_value=inactive
substance=FVKLKYINFGCLRGCESGCL recorded_endpoint="amyloid nucleation score" reported_value=1.42
substance=MGVSWIII recorded_endpoint="amyloid nucleation score" reported_value=inactive
substance=YLSDVLSLWCSVQIWSGLYC recorded_endpoint="amyloid nucleation score" reported_value=inactive
substance=MGLIERLWWSTPIKF recorded_endpoint="amyloid nucleation score" reported_value=inactive
substance=LVYLAF recorded_endpoint="amyloid nucleation score" reported_value=inactive
substance=SDAVSIWGQKSNISSICNDS recorded_endpoint="amyloid nucleation score" reported_value=inactive
substance=VPTMMRVR recorded_endpoint="amyloid nucleation score" reported_value=inactive
substance=ITYAQSLKLCRTRVIGGLMY recorded_endpoint="amyloid nucleation score" reported_value=0.445
substance=RSIYCLRVNTGYMNKFVVLR recorded_endpoint="amyloid nucleation score" reported_value=inactive
substance=SEFGPIEATSAHMFESPFKG recorded_endpoint="amyloid nucleation score" reported_value=inactive
substance=YRSKNFMIQRWTRVVLRAWM recorded_endpoint="amyloid nucleation score" reported_value=inactive
substance=NGYMSRVHLCPKCFRLHGFR recorded_endpoint="amyloid nucleation score" reported_value=inactive
substance=SITSAPSLYMSGFTKVCSGE recorded_endpoint="amyloid nucleation score" reported_value=inactive
substance=SKAMLTVA recorded_endpoint="amyloid nucleation score" reported_value=inactive
substance=RMLGLNQYCSMLICTIVNFS recorded_endpoint="amyloid nucleation score" reported_value=1.19
substance=HVSAARMFSSYDPRKPGENM recorded_endpoint="amyloid nucleation score" reported_value=inactive
substance=RANLPRLFQNDHNSWLDCVA recorded_endpoint="amyloid nucleation score" reported_value=inactive
substance=VMVAMTFNWHDALILWDGMV recorded_endpoint="amyloid nucleation score" reported_value=inactive
substance=GILLRFNKGA recorded_endpoint="amyloid nucleation score" reported_value=inactive
substance=WYTIRDYRAFLSVM recorded_endpoint="amyloid nucleation score" reported_value=inactive
substance=LLRGVRKE recorded_endpoint="amyloid nucleation score" reported_value=inactive
substance=RGVAVR recorded_endpoint="amyloid nucleation score" reported_value=1.89
substance=RKLSAHLQEGD recorded_endpoint="amyloid nucleation score" reported_value=inactive
substance=MGFVHINGQCTQLLCCSRLK recorded_endpoint="amyloid nucleation score" reported_value=1.94
substance=VFFFMELEYSYFEY recorded_endpoint="amyloid nucleation score" reported_value=inactive
substance=FGVVDYARRSWGYGSCGGHV recorded_endpoint="amyloid nucleation score" reported_value=inactive
substance=SMSPTKLYSSIMVNSWEWLF recorded_endpoint="amyloid nucleation score" reported_value=inactive
substance=LVGLGLGFCYLIKTFVTLLV recorded_endpoint="amyloid nucleation score" reported_value=inactive
substance=RQIMGQKRKNRQESFGFVGC recorded_endpoint="amyloid nucleation score" reported_value=inactive
substance=WSFCGLYLNI recorded_endpoint="amyloid nucleation score" reported_value=1.62
substance=PVQPTEARNR recorded_endpoint="amyloid nucleation score" reported_value=inactive
substance=VFCKNLNYALRMPSKWGLYT recorded_endpoint="amyloid nucleation score" reported_value=inactive
substance=IVKNDGNGHLLYTLCVFRFW recorded_endpoint="amyloid nucleation score" reported_value=inactive
